- tgt: T1, human CCR8 (chemokine (C-C motif) receptor 8) (human, UniProt P51685 1-355)
- T1 construct: whole, on cells; also called CCR8-CHO-K1 cells; CHOK1-CCR8 cells
- measurement.protocol: flow cytometry on CHOK1-CCR8 cells, steps of Example 6

# binder, binding result
records = [
    ("Hu-2-Z1 (antibody, V domains shown, Humanized from CH-2; made by the aforementioned method (human IgG framework); also called humanized antibody Hu-2-Z1) VH: QVQLVQSGAEVKKPGASVKVSCKASGYTFTDYEMHWVRQAPGQGLEWMGAIDPETGATAYNQKFKGRVTSTRDTSISTAYMELSRLRSDDTVVYYCARRAGGRGRFAYWGQGTLVTVSS VL: EIVLTQSPGTLSLSPGERATLSCRSSQSLVHSSGNTYLHWYQQKPGQAPRLLIYKVSNRFSGIPDRFSGSGSGTDFTLTISRLEPEDFAVYYCSQTTHVPYTFGGGTKLELK", "binds"),
]
